target: Luciferin 4-monooxygenase (Photinus pyralis); test: firefly luciferase inhibitors, HSP90 counter-screen, confirmation, artefact control for HSP90 inhibitor project, biochemical, luminescence, triplicate (AID 1847); conditions: purified native firefly luciferase, at 5.9 µM, hits give high values;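 also: 0% = DMSO with luciferase and 100% = wells lacking luciferase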
The whole screen tested about 2,300 compounds, of which about 1,100 (48%) were called active. So high a share suggests a set chosen from earlier hits. Only a sample is shown.
recordedEndpoint: inhibition (%)

compoundSmiles | recordedEndpoint | unitsSymbol | resultNumber
CCOc1c(Br)cc(/C=C2\C(=O)N(CCC#N)N=C2C)cc1OC | inhibition | % | 29.9
Cc1cccc(NC(=O)/C=C/c2ccc3c(c2)OCO3)n1 | inhibition | % | 30.9
CCOc1ccc(N/C=C/C(=O)c2ccccc2)cc1 | inhibition | % | 62.8
COc1ccc(C(=O)/C=C/Nc2ccccn2)cc1 | inhibition | % | 90.9

----------
biological target: Luciferin 4-monooxygenase (Photinus pyralis) (UniProt P08659); assay: firefly luciferase inhibitors, HSP90 counter-screen, confirmation, artefact control for HSP90 inhibitor project, biochemical, luminescence, triplicate (AID 1847); conditions: purified native firefly luciferase, at 5.9 µM;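 also: 0% = DMSO with luciferase and 100% = wells lacking luciferase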
Sequence (P08659 whole entry, looked up): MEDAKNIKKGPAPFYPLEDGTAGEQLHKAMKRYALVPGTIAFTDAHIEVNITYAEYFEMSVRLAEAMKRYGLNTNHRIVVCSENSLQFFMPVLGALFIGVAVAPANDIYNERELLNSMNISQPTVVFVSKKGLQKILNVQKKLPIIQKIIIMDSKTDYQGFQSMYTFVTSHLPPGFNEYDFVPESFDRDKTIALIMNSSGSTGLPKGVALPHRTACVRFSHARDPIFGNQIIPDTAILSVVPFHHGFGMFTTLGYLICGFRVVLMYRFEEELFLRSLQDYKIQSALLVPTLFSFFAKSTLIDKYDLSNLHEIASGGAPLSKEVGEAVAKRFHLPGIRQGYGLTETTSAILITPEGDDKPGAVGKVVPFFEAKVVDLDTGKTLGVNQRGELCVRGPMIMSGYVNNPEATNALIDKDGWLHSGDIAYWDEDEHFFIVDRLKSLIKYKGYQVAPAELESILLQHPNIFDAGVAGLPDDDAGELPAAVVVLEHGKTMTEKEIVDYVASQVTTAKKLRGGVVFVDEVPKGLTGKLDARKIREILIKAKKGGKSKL
About 1,100 (48%) of roughly 2,300 compounds were called active.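 Rule for the calls: active = inhibition above the mean inhibition of all tested sample wells plus 3 SD (cut at about 10% in these data); inactive = the rest.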 So high a share suggests a set chosen from earlier hits. The list is a sample of the results.
Classes used: active, inactive

compound | class
CCCCOCCCNC(=O)c1ccccc1OCC | inactive
Cc1ccc(-n2c(SCC(=O)Nc3ncc(Cl)cc3Cl)nc3ccccc32)cc1 | inactive
CC(C)CNC(=O)CC(NCC(C)C)C(=O)O (configuration not stated) | inactive
Nc1ccc(-c2nnc(-c3ccccc3)o2)cc1 | inactive
CCc1ccc2oc(-c3ccc(N)cc3)nc2c1 | active
COc1ccc(Nc2ncnc3ccc(Br)cc23)c(OC)c1 | active
Oc1c(C=Nc2cccc3nsnc23)ccc2ccccc12 | inactive

Cited source: PubChem BioAssay AID1847
